Recorded OX2R agonist activity (3 μM, %), one value per entry.
target_under_test: human orexin type 2 receptor (Homo sapiens)
Construct: expressed in transfected cells
Sequence (O43614 whole entry): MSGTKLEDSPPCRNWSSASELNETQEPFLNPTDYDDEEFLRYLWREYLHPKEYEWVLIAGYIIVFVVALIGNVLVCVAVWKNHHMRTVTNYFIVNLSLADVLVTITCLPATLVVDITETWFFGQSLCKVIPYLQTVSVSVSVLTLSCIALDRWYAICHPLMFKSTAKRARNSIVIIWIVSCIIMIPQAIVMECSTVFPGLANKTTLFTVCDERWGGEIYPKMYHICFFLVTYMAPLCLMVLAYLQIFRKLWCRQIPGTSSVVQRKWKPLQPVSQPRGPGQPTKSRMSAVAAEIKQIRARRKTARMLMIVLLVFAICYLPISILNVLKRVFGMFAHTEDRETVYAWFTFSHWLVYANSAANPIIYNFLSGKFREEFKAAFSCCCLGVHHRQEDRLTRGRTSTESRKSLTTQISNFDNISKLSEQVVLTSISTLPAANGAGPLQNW
procedure_text: Measurement of orexin type 2 receptor agonist activity (calcium fluorescence, Fluo-4 AM, FDSS)
Format: cell-based
setup_conditions: compound at 3 μM; CHO cells forcibly expressing human OX2 receptor; DMSO = 0%, orexin A (human) 10 nM = 100%
Excerpt: Experimental Example 1: Obtainment of Cell Stably Expressing Human Orexin Type 2 Receptor (hOX2R) To obtain a cell clone stably expressing human orexin type 2 receptor, human orexin type 2 receptor cDNA was inserted into pcDNA3.1(+) plasmid vector (Invitrogen), and a plasmid DNA for expression of human orexin type 2 receptor (pcDNA3.1(+)/hOX2R) was cloned. […]
Please state the figure in %; there is no need to write the unit.

Use the examples below as a reference point.
Exam item: Please report OX2R agonist activity (3 μM, %) for the following molecule: "O=C(N[C@H]1CCN(C(=O)N2CCC2)[C@H]1Cc1csc(-c2cccc(F)c2)n1)[C@@H]1CCCO1"
Marked response: 76

Exam item: Return OX2R agonist activity (3 μM, %) (reported value) for this molecule: "CN(C)C(=O)C(=O)N[C@H]1CCN(C(=O)C2(F)CCC2)[C@H]1Cc1cccc(-c2cccc(F)c2)c1"
Marked response: 75

Exam item: Annotate the molecule "CN(C)C(=O)C(=O)N[C@H]1CCN(C(=O)C2CCC2)[C@H]1Cc1cccc(-c2cccc(F)c2)c1" with its measured OX2R agonist activity (3 μM, %).
Marked response: 103

Exam item: Please give measured OX2R agonist activity (3 μM, %) of the following entry: "COC1(C(=O)N[C@H]2CCN(C(=O)N3CCC3)[C@H]2Cc2csc(-c3cccc(F)c3)n2)CC1"
Marked response: 67

Exam item: State its OX2R agonist activity (3 μM, %): CN(C)C(=O)C(=O)NC1CCN(C(=O)C2CCC2)C1Cc1cccc(-c2cccc(F)c2)c1 (stereo not shown)
Marked response: 95

Exam item: Entry CC(F)(F)C(=O)N[C@H]1CCN(C(=O)C2CCC2)[C@H]1Cc1cccc(-c2cccc(F)c2)c1 (relative stereo) needs its OX2R agonist activity (3 μM, %) filled in; supply it.
Marked response: 66

Exam item: Recall and state the measured OX2R agonist activity (3 μM, %) for "CN(C)C(=O)C(=O)N[C@H]1CCN(C(=O)N2CCC2)[C@H]1Cc1csc(-c2cccc(F)c2)n1" .
Marked response: 89

Exam item: Quote OX2R agonist activity (3 μM, %) reported for O=C(NC1CCN(C(=O)C2CCC2)C1Cc1cccc(-c2cccc(F)c2)c1)[C@@H]1CCCO1 (stereo in doubt) please.
Marked response: 90

Exam item: Give the reported value of OX2R agonist activity (3 μM, %) for this record: "O=C(N[C@H]1CCN(C(=O)C2(O)CCC2)[C@H]1Cc1cccc(-c2cccc(F)c2)c1)[C@@H]1CCCO1"
Marked response: 86

Exam item: Give me measured OX2R agonist activity (3 μM, %), please, for this molecule: O=C(N[C@H]1CCN(C(=O)C2CCC2)[C@H]1Cc1cccc(-c2cccc(F)c2)c1)C1CCCO1 (relative stereo)
Marked response: 92

Let us examine a further case.
Exam item: Answer with the recorded OX2R agonist activity (3 μM, %) of "O=C(N[C@H]1CCN(C(=O)N2CCC2)[C@H]1Cc1cccc(-c2cccc(F)c2)c1)[C@@H]1CCCO1" only.
Marked response: 104
